- EXPERIMENT_SUMMARY: Pharmacokinetic study with Compound 218 (IV 5 mg/kg, PO 25 mg/kg)
- Type: in vivo
- PARTICULARS: dog, plasma; analyte Compound 218; oral 25 mg/kg Compound 218; fasted male beagle dogs; mean; read-out: Compound 218 PK Tmax
READOUT_TYPE: Tmax

Q: Which measured Tmax value corresponds to `CC(=O)[C@H]1CC[C@H]2[C@@H]3CC[C@H]4C[C@](C)(OC(=O)COC(=O)C(C)(C)N)CC[C@]4(C)[C@H]3CC[C@]12C` ?
Result: 1.17 h

====

Exercise: state measured Rat Liver Microsomal Stability no NADPH, % remain 1 h for each of the molecules provided.
- EXPERIMENT_SUMMARY: Rat liver microsomal stability
- Assay type: in vitro ADME
- PARTICULARS: rat liver microsomes, no NADPH, 1 h, compound 0.5 μM
Could you give me the number in %? Just the number is fine.

Q: Which measured Rat Liver Microsomal Stability no NADPH, % remain 1 h value corresponds to CC(=O)[C@H]1CC[C@H]2[C@@H]3CC[C@H]4C[C@](C)(OC(=O)COC(=O)CN5CCOCC5)CC[C@]4(C)[C@H]3CC[C@]12C [Compound 200] ?
Result: 7.5

Q: Now this one: CC(=O)[C@H]1CC[C@H]2[C@@H]3CC[C@H]4C[C@](C)(OC(=O)COC(=O)C(C)(C)N)CC[C@]4(C)[C@H]3CC[C@]12C [Compound 218]
Result: 83

Q: Now this one: CC(=O)[C@H]1CC[C@H]2[C@@H]3CC[C@H]4C[C@](C)(O)CC[C@]4(C)[C@H]3CC[C@]12C [ganaxolone, Ganaxolone]
Result: 98.0

====

Exercise: state measured half-life for each of the molecules provided.
- EXPERIMENT_SUMMARY: in vitro
- PARTICULARS: human, plasma

Q: Which measured half-life value corresponds to `CC(=O)[C@H]1CC[C@H]2[C@@H]3CC[C@H]4C[C@](C)(OC(=O)COC(=O)CN5CCOCC5)CC[C@]4(C)[C@H]3CC[C@]12C` ?
Result: 14.6 min

Q: Now this one: `CC(=O)[C@H]1CC[C@H]2[C@@H]3CC[C@H]4C[C@](C)(OC(=O)COC(=O)C(C)(C)O)CC[C@]4(C)[C@H]3CC[C@]12C`
Result: 43 min

Q: Now this one: `CC(=O)[C@H]1CC[C@H]2[C@@H]3CC[C@H]4C[C@](C)(OC(=O)COC(=O)C(C)(C)N)CC[C@]4(C)[C@H]3CC[C@]12C`
Result: 56.9 min

Q: Now this one: `CC(=O)[C@H]1CC[C@H]2[C@@H]3CC[C@H]4C[C@](C)(O)CC[C@]4(C)[C@H]3CC[C@]12C`
Result: 1400 min

Q: Now this one: `CC(=O)OCCN(C)CC(=O)OC(C)(C)C(=O)OCC(=O)O[C@]1(C)CC[C@@]2(C)[C@@H](CC[C@@H]3[C@@H]2CC[C@]2(C)[C@@H](C(C)=O)CC[C@@H]32)C1`
Result: 33 min

Q: Now this one: `CC(=O)[C@H]1CC[C@H]2[C@@H]3CC[C@H]4C[C@](C)(OC(=O)CN)CC[C@]4(C)[C@H]3CC[C@]12C`
Result: 3600 min

Q: Now this one: `CC(=O)[C@H]1CC[C@H]2[C@@H]3CC[C@H]4C[C@](C)(OCOC(=O)CN5CCOCC5)CC[C@]4(C)[C@H]3CC[C@]12C`
Result: 17.1 min

Q: Now this one: `CC(=O)[C@H]1CC[C@H]2[C@@H]3CC[C@H]4C[C@](C)(OC(=O)CO)CC[C@]4(C)[C@H]3CC[C@]12C`
Result: 2080 min

Q: Now this one: `CC(=O)[C@H]1CC[C@H]2[C@@H]3CC[C@H]4C[C@](C)(OC(=O)COC(=O)CN5CCN(C)CC5)CC[C@]4(C)[C@H]3CC[C@]12C`
Result: 177 min

Q: Now this one: `CC(=O)[C@H]1CC[C@H]2[C@@H]3CC[C@H]4C[C@](C)(OC(=O)CN5CCOCC5)CC[C@]4(C)[C@H]3CC[C@]12C`
Result: 1620 min

Q: Now this one: `COc1ccccc1N1CCN(CC(=O)O[C@]2(C)CC[C@@]3(C)[C@@H](CC[C@@H]4[C@@H]3CC[C@]3(C)[C@@H](C(C)=O)CC[C@@H]43)C2)CC1`
Result: 184 min

Q: Now this one: `CC(=O)[C@H]1CC[C@H]2[C@@H]3CC[C@H]4C[C@](C)(OC(=O)CNC(C)(C)C(=O)O)CC[C@]4(C)[C@H]3CC[C@]12C`
Result: 1490 min

Q: Now this one: `COCCOCCOCC(=O)OCO[C@]1(C)CC[C@@]2(C)[C@@H](CC[C@@H]3[C@@H]2CC[C@]2(C)[C@@H](C(C)=O)CC[C@@H]32)C1`
Result: < 30 min

Q: Now this one: `CC(=O)[C@H]1CC[C@H]2[C@@H]3CC[C@H]4C[C@](C)(OC(=O)COC(=O)OCCN(C)C)CC[C@]4(C)[C@H]3CC[C@]12C`
Result: 21.1 min

Q: Now this one: `CC(=O)[C@H]1CC[C@H]2[C@@H]3CC[C@H]4C[C@](C)(OC(=O)COC(=O)C(C)(C)OC(=O)CN(CCO)CCO)CC[C@]4(C)[C@H]3CC[C@]12C`
Result: 9 min

====

- EXPERIMENT_SUMMARY: in vitro
- Assay type: in vitro ADME, human
- PARTICULARS: human liver microsomes, no NADPH, 1 h, compound 0.5 μM
Exercise: state measured Human Liver Microsomal Stability no NADPH, % remain 1 h for each of the compounds provided.
Form entry: enter the amount, then its unit.

Q: Which measured Human Liver Microsomal Stability no NADPH, % remain 1 h value corresponds to CCOCCC(=O)OCC(=O)O[C@]1(C)CC[C@@]2(C)[C@@H](CC[C@@H]3[C@@H]2CC[C@]2(C)[C@@H](C(C)=O)CC[C@@H]32)C1 [Compound 203] ?
Result: 0.79%

Q: Now this one: CC(=O)[C@H]1CC[C@H]2[C@@H]3CC[C@H]4C[C@](C)(OC(=O)COC(=O)CO)CC[C@]4(C)[C@H]3CC[C@]12C [Compound 247]
Result: 1.1%

Q: Now this one: CC(=O)[C@H]1CC[C@H]2[C@@H]3CC[C@H]4C[C@](C)(OC(=O)CCC(=O)NCCN(C)C)CC[C@]4(C)[C@H]3CC[C@]12C [Compound 410]
Result: 99%

Q: Now this one: CC(=O)[C@H]1CC[C@H]2[C@@H]3CC[C@H]4C[C@](C)(OC(=O)CCC(=O)O)CC[C@]4(C)[C@H]3CC[C@]12C [Compound 407]
Result: 99%

Q: Now this one: CC(=O)[C@H]1CC[C@H]2[C@@H]3CC[C@H]4C[C@](C)(OC(=O)CC(C)(C)C(=O)NCCN(C)C)CC[C@]4(C)[C@H]3CC[C@]12C [Compound 412]
Result: 94%

====

- EXPERIMENT_SUMMARY: Pharmacokinetic study with Compound 218 (IV 5 mg/kg, PO 25 mg/kg)
- Type: in vivo
- PARTICULARS: dog, plasma; analyte Compound 218; IV 5 mg/kg Compound 218; fasted male beagle dogs; mean; read-out: Compound 218 PK AUClast
READOUT_TYPE: AUC(0-t)

Q: Which measured AUC(0-t) value corresponds to CC(=O)[C@H]1CC[C@H]2[C@@H]3CC[C@H]4C[C@](C)(OC(=O)COC(=O)C(C)(C)N)CC[C@]4(C)[C@H]3CC[C@]12C [Compound 218] ?
Result: 2130 ng·h/mL

====

- EXPERIMENT_SUMMARY: Pharmacokinetic study with Compound 218 (IV 5 mg/kg, PO 25 mg/kg)
- Format: in vivo
- PARTICULARS: dog, plasma; analyte Compound 218; IV 5 mg/kg Compound 218; fasted male beagle dogs; mean; read-out: Compound 218 PK t1/2 (converted)
READOUT_TYPE: half-life (h)
Could you give me the number in h? Just the number is fine.

Q: Which measured half-life value corresponds to `CC(=O)[C@H]1CC[C@H]2[C@@H]3CC[C@H]4C[C@](C)(OC(=O)COC(=O)C(C)(C)N)CC[C@]4(C)[C@H]3CC[C@]12C` ?
Result: 17.7

====

- EXPERIMENT_SUMMARY: in vitro
- Assay type: in vitro ADME, human
- PARTICULARS: human liver microsomes 0.5 mg/mL, with NADPH, compound 0.5 μM, 37° C.; read-out: Human Liver Microsomal Stability t1/2
READOUT_TYPE: half-life (min)
Could you give me the number in min? Just the number is fine.

Q: Which measured half-life value corresponds to `COC(=O)CNCC(=O)O[C@]1(C)CC[C@@]2(C)[C@@H](CC[C@@H]3[C@@H]2CC[C@]2(C)[C@@H](C(C)=O)CC[C@@H]32)C1` ?
Result: 4.15

Q: Now this one: `CC(=O)[C@H]1CC[C@H]2[C@@H]3CC[C@H]4C[C@](C)(OC(=O)COC(=O)CN5CCN(C)CC5)CC[C@]4(C)[C@H]3CC[C@]12C`
Result: 37

Q: Now this one: `CC(=O)[C@H]1CC[C@H]2[C@@H]3CC[C@H]4C[C@](C)(OC(=O)CNCC(C)(C)N)CC[C@]4(C)[C@H]3CC[C@]12C`
Result: 33.2

Q: Now this one: `CC(=O)[C@H]1CC[C@H]2[C@@H]3CC[C@H]4C[C@](C)(OC(=O)COC(=O)[C@H](CC(C)C)NC(=O)[C@@H](N)CC(C)C)CC[C@]4(C)[C@H]3CC[C@]12C`
Result: 257

Q: Now this one: `CC(=O)[C@H]1CC[C@H]2[C@@H]3CC[C@H]4C[C@](C)(OC(=O)CNC(C)(C)COC(=O)CN5CCOCC5)CC[C@]4(C)[C@H]3CC[C@]12C`
Result: 3

Q: Now this one: `COc1ccccc1N1CCN(CC(=O)O[C@]2(C)CC[C@@]3(C)[C@@H](CC[C@@H]4[C@@H]3CC[C@]3(C)[C@@H](C(C)=O)CC[C@@H]43)C2)CC1`
Result: 11.9

Q: Now this one: `COCCN(CCO)CC(=O)OC(C)(C)C(=O)OCC(=O)O[C@]1(C)CC[C@@]2(C)[C@@H](CC[C@@H]3[C@@H]2CC[C@]2(C)[C@@H](C(C)=O)CC[C@@H]32)C1`
Result: 5.2

Q: Now this one: `CC(=O)[C@H]1CC[C@H]2[C@@H]3CC[C@H]4C[C@](C)(OC(=O)CN)CC[C@]4(C)[C@H]3CC[C@]12C`
Result: 190

Q: Now this one: `CC(=O)[C@H]1CC[C@H]2[C@@H]3CC[C@H]4C[C@](C)(OC(=O)CSC(C)(C)COC(=O)CN5CCOCC5)CC[C@]4(C)[C@H]3CC[C@]12C`
Result: 2.9

Q: Now this one: `CC(=O)[C@H]1CC[C@H]2[C@@H]3CC[C@H]4C[C@](C)(OC(=O)CSC(=N)N)CC[C@]4(C)[C@H]3CC[C@]12C`
Result: 173

Q: Now this one: `CC(=O)[C@H]1CC[C@H]2[C@@H]3CC[C@H]4C[C@](C)(OC(=O)COC(=O)C(C)(C)OC(=O)CN(C)CCCO)CC[C@]4(C)[C@H]3CC[C@]12C`
Result: 11.4

Q: Now this one: `CC(=O)[C@H]1CC[C@H]2[C@@H]3CC[C@H]4C[C@](C)(OC(=O)CCCCN)CC[C@]4(C)[C@H]3CC[C@]12C`
Result: 451

Q: Now this one: `COCCOCCOCC(=O)OCC(=O)O[C@]1(C)CC[C@@]2(C)[C@@H](CC[C@@H]3[C@@H]2CC[C@]2(C)[C@@H](C(C)=O)CC[C@@H]32)C1`
Result: 3.58

Q: Now this one: `COC(=O)[C@@H](NCC(=O)O[C@]1(C)CC[C@@]2(C)[C@@H](CC[C@@H]3[C@@H]2CC[C@]2(C)[C@@H](C(C)=O)CC[C@@H]32)C1)C(C)C`
Result: 12.2

Q: Now this one: `CC(=O)[C@H]1CC[C@H]2[C@@H]3CC[C@H]4C[C@](C)(OC(=O)COC(=O)CNC(=O)[C@@H](N)C(C)C)CC[C@]4(C)[C@H]3CC[C@]12C`
Result: 161

Q: Now this one: `CNC(C)(C)C(=O)OCC(=O)O[C@]1(C)CC[C@@]2(C)[C@@H](CC[C@@H]3[C@@H]2CC[C@]2(C)[C@@H](C(C)=O)CC[C@@H]32)C1`
Result: 13.5

Q: Now this one: `CC(=O)[C@H]1CC[C@H]2[C@@H]3CC[C@H]4C[C@](C)(OC(=O)COC(=O)C(C)(C)OC(=O)CN(C)CCO)CC[C@]4(C)[C@H]3CC[C@]12C`
Result: 5.3

Q: Now this one: `CC(=O)[C@H]1CC[C@H]2[C@@H]3CC[C@H]4C[C@](C)(OC(=O)COC(=O)CN(C)C)CC[C@]4(C)[C@H]3CC[C@]12C`
Result: 2.62

Q: Now this one: `COCCOCCOCC(=O)OCO[C@]1(C)CC[C@@]2(C)[C@@H](CC[C@@H]3[C@@H]2CC[C@]2(C)[C@@H](C(C)=O)CC[C@@H]32)C1`
Result: 5.65

Q: Now this one: `CC(=O)[C@H]1CC[C@H]2[C@@H]3CC[C@H]4C[C@](C)(OC(=O)CSCCOC(=O)CN5CCOCC5)CC[C@]4(C)[C@H]3CC[C@]12C`
Result: 2.48
